B1: Serine/threonine-protein kinase STE20 (Saccharomyces cerevisiae), Q03497 (parent)
chain: MSNDPSAVSELPDKDSLDNGISNDNERAMGGNGDGGDGLRLPRTTGTLNVNALQKGTNAAHEAGGYKSMDPAKNAETTNDDDNNVVSLDDPIQFTRVSSSSVISGMSSSMSPHSNIDETKSLEAVTPNINTSNITPDHSADNTFSTINASESDHQFNDTLLSKLSLTDSTETIENNATVKHQQPVASSTVNSNKSSTDIRRATPVSTPVISKPSMTTTPRQINSASHSLSNPKHKQHKPKVKPSKPEAKSKPVSVKKSFPSKNPLKNSSPPKKQTEKSYYSSSSKKRKSGSNSGTLRMKDVFTSFVQNIKRNSQDDKRASSSSNNSSSSSITTALRISTPYNAKHIHHVGVDSKTGEYTGLPEEWEKLLTSSGISKREQQQNMQAVMDIVKFYQDVTETNGEDKMFKTFNTTTGLPGSPQVSTPPANSFNKFPPSTSDSHNYGSRTGTPMSNHVMSPTLNTDSSSANGKFIPSRPAPKPPSSASASAPIIKSPVMNSAANVSPLKQTHAPTTPNRTSPNRSSISRNATLKKEEQPLPPIPPTKSKTSPIISTAHTPQQVAQSPKAPAQETVTTPTSKPAQARSLSKELNEKKREERERRKKQLYAKLNEICSDGDPSTKYANLVKIGQGASGGVYTAYEIGTNVSVAIKQMNLEKQPKKELIINEILVMKGSKHPNIVNFIDSYVLKGDLWVIMEYMEGGSLTDVVTHCILTEGQIGAVCRETLSGLEFLHSKGVLHRDIKSDNILLSMEGDIKLTDFGFCAQINELNLKRTTMVGTPYWMAPEVVSRKEYGPKVDIWSLGIMIIEMIEGEPPYLNETPLRALYLIATNGTPKLKEPENLSSSLKKFLDWCLCVEPEDRASATELLHDEYITEIAEANSSLAPLVKLARLKKVAENMDADEDNDDDNDNEHINKTNNCDDNNDSKETVNLDVTEDDKQK
partner: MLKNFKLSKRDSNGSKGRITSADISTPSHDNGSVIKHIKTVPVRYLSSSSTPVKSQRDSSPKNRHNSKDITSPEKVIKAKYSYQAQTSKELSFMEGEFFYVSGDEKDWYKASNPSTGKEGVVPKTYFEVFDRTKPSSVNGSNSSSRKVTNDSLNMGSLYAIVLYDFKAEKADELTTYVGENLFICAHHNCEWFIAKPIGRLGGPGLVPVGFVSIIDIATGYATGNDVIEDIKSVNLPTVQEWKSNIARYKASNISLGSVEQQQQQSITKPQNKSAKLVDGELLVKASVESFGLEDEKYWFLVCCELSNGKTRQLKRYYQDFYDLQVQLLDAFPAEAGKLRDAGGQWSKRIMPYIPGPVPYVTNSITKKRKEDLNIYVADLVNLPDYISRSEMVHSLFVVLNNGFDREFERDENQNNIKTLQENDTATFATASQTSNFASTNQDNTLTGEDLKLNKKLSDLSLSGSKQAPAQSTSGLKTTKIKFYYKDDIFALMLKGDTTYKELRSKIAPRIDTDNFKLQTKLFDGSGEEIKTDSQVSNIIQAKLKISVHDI

# Variants of: B1
# ASSAY CONDITIONS: with bem1_yeast BEM1, P29366
ENDPOINT NAME: effect of a mutation on the interaction

Sample answers from the record:
>>> measured_result("A476G")
"decreasing interaction"
>>> measured_result("S473A")
"decreasing interaction"
>>> measured_result("P477A")
"decreasing interaction"
>>> measured_result("P475G")
"decreasing interaction"
>>> measured_result("P472A")
"decreasing interaction"

Now let's try a different one.
Input line: Report measured effect of a mutation on the interaction; entry is R474G
Output line: decreasing interaction

The measurements presented in this section are drawn from IntAct's records for PubMed 15743816.
